# Test system: Low density cholesterol (Chl small) plaque particles
# protocolDetails: Mass spectroscopy proteomics, semi-quantitative binding affinity of serum proteins (plaqueproteome, Table 2)
# Design: species or system human
# testParameters: higher number = stronger affinity
readoutLabel: Semi-quantitative analysis of proteins binding to different plaque particles: Chl small
Give only the figure.

Identify measured Semi-quantitative analysis of proteins binding to different plaque particles: Chl small corresponding to Immunoglobulin lambda-like polypeptide 1 (protein) LLRPTAASQSRALGPGAPGGSSRSSLRSRWGRFLLQRGSWTGPRCWPRGFQSKHNSVTHVFGSGTQLTVLSQPKATPSVTLFPPSSEELQANKATLVCLMNDFYPGILTVTWKADGTPITQGVEMTTPSKQSNNKYAASSYLSLTPEQWRSRRSYSCQVMHEGSTVEKTVAPAECS
1

Quick one: give measured Semi-quantitative analysis of proteins binding to different plaque particles: Chl small for Ig kappa chain V-I region BAN (protein) DIQMTQSPSSLSASVGDRVTITCRASQGISNYLAWFQQKPGKAPKSLIYAASSLQSGVPSKFSGSGSGTDFTLTISSLQPEDFATYYCQQYNSYP
1

Note down Semi-quantitative analysis of proteins binding to different plaque particles: Chl small recorded for Isoform 2 of Nucleophosmin (protein) MEDSMDMDMSPLRPQNYLFGCELKADKDYHFKVDNDENEHQLSLRTVSLGAGAKDELHIVEAEAMNYEGSPIKVTLATLKMSVQPTVSLGGFEITPPVVLRLKCGSGPVHISGQHLVAVEEDAESEDEEEEDVKLLSISGKRSAPGGGSKVPQKKVKLAADEDDDDDDEEDDDEDDDDDDFDDEEAEEKAPVKKGQESFKKQEKTPKTPKGPSSVEDIKAKMQASIEKGGSLPKVEAKFINYVKNCFRMTDQEAIQDLWQWRKSL
0

Quick one: give measured Semi-quantitative analysis of proteins binding to different plaque particles: Chl small for Isoform 2 of Ficolin-3 (protein) QEHPSCPGPRELEASKVVLLPSCPGAPGSPGEKGAPGPQGPPGPPGKMGPKGEPGPRNCRELLSQGATLSGWYHLCLPEGRALPVFCDMDTEGGGWLVFQRRQDGSVDFFRSWSSYRAGFGNQESEFWLGNENLHQLTLQGNWELRVELEDFNGNRTFAHYATFRLLGEVDHYQLALGKFSEGTAGDSLSLHSGRPFTTYDADHDSSNSNCAVIVHGAWWYASCYRSNLNGRYAVSEAAAHKYGIDWASGRGVGHPYRRVRMMLR
0

Output measured Semi-quantitative analysis of proteins binding to different plaque particles: Chl small for this item: Zinc-alpha-2-glycoprotein (protein) QENQDGRYSLTYIYTGLSKHVEDVPAFQALGSLNDLQFFRYNSKDRKSQPMGLWRQVEGMEDWKQDSQLQKAREDIFMETLKDIVEYYNDSNGSHVLQGRFGCEIENNRSSGAFWKYYYDGKDYIEFNKEIPAWVPFDPAAQITKQKWEAEPVYVQRAKAYLEEECPATLRKYLKYSKNILDRQDPPSVVVTSHQAPGEKKKLKCLAYDFYPGKIDVHWTRAGEVQEPELRGDVLHNGNGTYQSWVVVAVPPQDTAPYSCHVQHSSLAQPLVVPWEAS
5

Read the entry Alpha-2-HS-glycoprotein (protein) chain 1: APHGPGLIYRQPNCDDPETEEAALVAIDYINQNLPWGYKHTLNQIDEVKVWPQQPSGELFEIEIDTLETTCHVLDPTPVARCSVRQLKEHAVEGDCDFQLLKLDGKFSVVYAKCDSSPDSAEDVRKVCQDCPLLAPLNDTRVVHAAKAALAAFNAQNNGSNFQLEEISRAQLVPLPPSTYVEFTVSGTDCVAKEATEAAKCNLLAEKQYGFCKATLSEKLGGAEVAVTCMVFQTQPVSSQPQPEGANEAVPTPVVDPDAPPSPPLGAPGLPPAGSPPDSHVL chain 2: TVVQPSVGAAAGPVVPPCPGRIRHFKV and write its reported Semi-quantitative analysis of proteins binding to different plaque particles: Chl small.
11

Give reported Semi-quantitative analysis of proteins binding to different plaque particles: Chl small value for Protein AMBP (protein) GPVPTPPDNIQVQENFNISRIYGKWYNLAIGSTCPWLKKIMDRMTVSTLVLGEGATEAEISMTSTRWRKGVCEETSGAYEKTDTDGKFLYHKSKWNITMESYVVHTNYDEYAIFLTKKFSRHHGPTITAKLYGRAPQLRETLLQDFRVVAQGVGIPEDSIFTMADRGECVPGEQEPEPILIPRVRRAVLPQEEEGSGGGQLVTEVTKKEDSCQLGYSAGPCMGMTSRYFYNGTSMACETFQYGGCMGNGNNFVTEKECLQTCRTVAACNLPIVRGPCRAFIQLWAFDAVKGKCVLFPYGGCQGNGNKFYSEKECREYCGVPGDGDEELLRFSN
5

Provide measured Semi-quantitative analysis of proteins binding to different plaque particles: Chl small value, entry: Platelet factor 4 variant (protein) FARAEAEEDGDLQCLCVKTTSQVRPRHITSLEVIKAGPHCPTAQLIATLKNGRKICLDLQALLYKKIIKEHLES
0

Output measured Semi-quantitative analysis of proteins binding to different plaque particles: Chl small for this item: Serum paraoxonase/arylesterase (protein) AKLIALTLLGMGLALFRNHQSSYQTRLNALREVQPVELPNCNLVKGIETGSEDLEILPNGLAFISSGLKYPGIKSFNPNSPGKILLMDLNEEDPTVLELGITGSKFDVSSFNPHGISTFTDEDNAMYLLVVNHPDAKSTVELFKFQEEEKSLLHLKTIRHKLLPNLNDIVAVGPEHFYGTNDHYFLDPYLQSWEMYLGLAWSYVVYYSPSEVRVVAEGFDFANGINISPDGKYVYIAELLAHKIHVYEKHANWTLTPLKSLDFNTLVDNISVDPETGDLWVGCHPNGMKIFFYDSENPPASEVLRIQNILTEEPKVTQVYAENGTVLQGSTVASVYKGKLLIGTVFHKALYCEL
6
